tested on: NCI-H226 lung; assay: NCI tumour cell line growth inhibition, 48 h
Test Readout: GI50

Compound: CN(Cc1ccc(F)cc1)c1ccc(CO)c(Cl)c1
Test Readout: GI50
Value Observed: 0.126 µM
--
Compound: Cc1cc(CCl)c(C)cc1CCl
Test Readout: GI50
Value Observed: 2.89 µM
--
Compound: C=C1C(=O)O[C@H]2[C@H]1CC/C(COC(=O)N[C@H]1C[C@H](O[C@H]3C[C@](O)(C(=O)CO)Cc4c(O)c5c(c(O)c43)C(=O)c3c(OC)cccc3C5=O)O[C@@H](C)[C@H]1O)=C\CC[C@@]1(C)O[C@@H]21
Test Readout: GI50
Value Observed: 5.33 µM
--
Compound: C=C1C(=O)O[C@H]2[C@H]1CC/C(COC(=O)NCc1ccc(Cn3c(=O)sn(CCCCC)c3=O)cc1)=C\CC[C@@]1(C)O[C@@H]21
Test Readout: GI50
Value Observed: 10.7 µM
--
Compound: C/C(=C(/c1ccccc1)c1ccc(OCC(O)CNCCN2CCOCC2)cc1)c1ccccc1 (configuration not stated)
Test Readout: GI50
Value Observed: 12.1 µM
--
Compound: COc1ccc(-c2c(C#N)c(N)nc(N3CCOCC3)c2C#N)cc1
Test Readout: GI50
Value Observed: 26.3 µM
--
Compound: CC(=O)/C=C/c1ccc(Nc2c3ccccc3nc3occ(Cl)c23)cc1
Test Readout: GI50
Value Observed: 4.87 µM
--
Compound: CCOC(=O)c1ccc(NC(=O)NC2=NCCS2)cc1
Test Readout: GI50
Value Observed: 3.14 µM
--
Compound: CCCCCCNCCCNc1c2cc(OC)ccc2nc2cccc([N+](=O)[O-])c12
Test Readout: GI50
Value Observed: 0.38 µM
--
Compound: Cc1cn(-c2cccc(NC(=O)c3ccc(C)c(Nc4nccc(-c5cccnc5)n4)c3)c2)cn1
Test Readout: GI50
Value Observed: 1.59 µM
--
Compound: COc1cc([C@@H]2c3cc4c(cc3[C@H](OC(C)=O)[C@H]3COC(=O)[C@@H]23)OCO4)cc(OC)c1OC
Test Readout: GI50
Value Observed: 3.82 µM
--
Compound: CC(=O)c1ccc2c(c1)N(CCCN1CCN(CCO)CC1)c1ccccc1S2
Test Readout: GI50
Value Observed: 7.14 µM
--
Compound: COc1cc(OC)c2sc(-c3ccc(-n4cncc4-c4ccc(OC)c(OC)c4)cc3)nc2c1
Test Readout: GI50
Value Observed: 6.44 µM
--
Compound: C=C1C(=O)O[C@H]2[C@H]1CC/C(Cn1cc(-c3ccc(N)cc3)nn1)=C\CC[C@@]1(C)O[C@@H]21
Test Readout: GI50
Value Observed: 3.34 µM
--
Compound: COc1ccc(C(=O)c2sc3nc(-c4ccccc4OC)ccc3c2N)cc1OC
Test Readout: GI50
Value Observed: 5.13 µM
--
Compound: COc1cc(C2=NN(C(C)=O)C(c3cc(OC)c(OC)c(OC)c3)C2)ccc1O (configuration not stated)
Test Readout: GI50
Value Observed: 23.6 µM
--
Compound: C=C(CN1CCc2c([nH]c3ccccc23)C1)c1ccc(C(=O)Nc2ccccc2N)cc1
Test Readout: GI50
Value Observed: 1.32 µM

----------
test system: OVCAR-8 ovarian; experiment: NCI tumour cell line growth inhibition, 48 h
Measured TGI, listed per entry for reference.

Compound: C#CCN(N=O)C(=O)ON1C(=O)CCC1=O
Output Unit: µM
Qualifying Sign: >
TGI: 100
//
Compound: O=C(N=Nc1ccc(Cl)cc1Cl)NNc1ccc(Cl)cc1Cl
Output Unit: µM
Qualifying Sign: =
TGI: 37.6
//
Compound: O=C(/C=C1\Sc2ccccc2N=C1CC(=O)c1ccccc1)c1ccccc1
Output Unit: µM
Qualifying Sign: =
TGI: 37
//
Compound: O=C(Nc1cccc(F)c1)c1cc2ccc(O)cc2oc1=Nc1cccc(F)c1
Output Unit: µM
Qualifying Sign: =
TGI: 6.32
//
Compound: CC(=O)/C=C/c1ccc(Nc2c3ccccc3nc3occ(Cl)c23)cc1
Output Unit: µM
Qualifying Sign: =
TGI: 4.64
//
Compound: CC1CN=C(Nc2cccc(F)c2)S1 (stereo unspecified)
Output Unit: µM
Qualifying Sign: >
TGI: 100

----------
test system: OVCAR-8 ovarian; assay: NCI tumour cell line growth inhibition, 48 h
Examples of molecules with documented TGI follow.

Molecule: CCN1[C@@H](C(=O)NC23CCC(C(=O)O)(CC2)CC3)[C@H](c2cccc(Cl)c2F)[C@]2(C(=O)Nc3cc(Cl)ccc32)C12CCCCC2
Assay System: OVCAR-8 ovarian
TGI / µM: 18.7
//
Molecule: CC1=Nc2ccccc2SC(c2c(Cl)cccc2Cl)C1 (stereo not given)
Assay System: OVCAR-8 ovarian
TGI / µM: 0.588
//
Molecule: O=C1C(CO)=C[C@H](O)[C@H]2O[C@@H]12
Assay System: OVCAR-8 ovarian
TGI / µM: 325
//
Molecule: N#Cc1c(Cl)c2cccnc2n2c1nc1ccccc12
Assay System: OVCAR-8 ovarian
TGI / µM: 3.77
//
Molecule: COc1ccc2c(c1)C(=O)/C(=C/c1cccc(OCC(=O)Nc3nc(C)c(C)s3)c1)O2
Assay System: OVCAR-8 ovarian
TGI / µM: 12.9

----------
system: EKVX NSCLC; assay: NCI tumour cell line growth inhibition, 48 h
Tag: 1 (yes) if measured TGI is not below 40 µM, 0 (no) if it is.

Molecule: COc1ccc(/C=C(\NC(=O)c2ccccc2)c2nc3ccccc3[nH]2)cc1OC
Assay System: EKVX NSCLC
Group: 1 (yes)
--
Molecule: CCOP(=O)(OCC)/C(C#N)=C/c1ccccn1
Assay System: EKVX NSCLC
Group: 1 (yes)
--
Molecule: COc1ccc(/C=C2\C[C@H]3[C@@H]4CCC5=C/C(=N/O)CC[C@]5(C)[C@H]4CC[C@]3(C)\C2=N\O)cc1
Assay System: EKVX NSCLC
Group: 1 (yes)
--
Molecule: Cc1ccc(S(=O)C[C@](NC(=O)OCc2ccccc2)(Sc2ccccc2)C(F)F)cc1 (some centres undefined)
Assay System: EKVX NSCLC
Group: 0 (no)
--
Molecule: COc1cccc(CNc2ncnc3c2ncn3C2OC(CO)C(O)C2O)c1O (centres undefined)
Assay System: EKVX NSCLC
Group: 1 (yes)
--
Molecule: CC(=O)/C=C/c1ccc(Nc2c3ccccc3nc3occ(Cl)c23)cc1
Assay System: EKVX NSCLC
Group: 1 (yes)
--
Molecule: O=C(c1ccc2ccccc2c1)c1nc2cc(F)ccc2[n+]([O-])c1C(F)(F)F
Assay System: EKVX NSCLC
Group: 0 (no)
--
Molecule: CCOC(=O)C(=CNc1ccc(N(C2=NCC(C)S2)c2ccc(F)c(Cl)c2)cc1)C(=O)OCC (centres undefined)
Assay System: EKVX NSCLC
Group: 1 (yes)
--
Molecule: CCn1cc(/C=C2\Oc3cc(OCC#N)ccc3C2=O)c2cc(OC)ccc21
Assay System: EKVX NSCLC
Group: 1 (yes)
--
Molecule: Cc1ccc(S(=O)(=O)CNC(=O)C(O)(O)C(F)(F)F)cc1
Assay System: EKVX NSCLC
Group: 1 (yes)
--
Molecule: COc1ccc2c(c1)CN([C@@H](C)[C@H]1CC[C@H]3[C@@H]4CC[C@H]5C[C@@H](O)CC[C@]5(C)[C@H]4CC[C@]13C)CO2
Assay System: EKVX NSCLC
Group: 0 (no)
--
Molecule: COc1cc(C2=NN(C(C)=O)C(c3cc(OC)c(OC)c(OC)c3)C2)ccc1O (centres undefined)
Assay System: EKVX NSCLC
Group: 1 (yes)
--
Molecule: CSc1ncnc2c1ncn2CC(=O)C1CCC2C3CCC4=CC(=O)CCC4(C)C3CCC12C (centres undefined)
Assay System: EKVX NSCLC
Group: 1 (yes)
--
Molecule: Cn1cc(-c2cc(-c3cn(C)c4ccc(Cl)cc34)[nH]n2)c2cc(Cl)ccc21
Assay System: EKVX NSCLC
Group: 0 (no)
--
Molecule: O=c1nc2ccc([N+](=O)[O-])cc2[n+]([O-])[nH]1
Assay System: EKVX NSCLC
Group: 1 (yes)
--
Molecule: N#Cc1c2ccc([N+](=O)[O-])cc2c(=O)n2c1[nH]c1ccc(C(F)(F)F)cc12
Assay System: EKVX NSCLC
Group: 1 (yes)

----------
tested on: A549 NSCLC; assay: NCI tumour cell line growth inhibition, 48 h
Test Readout: TGI

Compound: C=CC(C)(C)n1cc(C2=C(O)C(=O)C(c3cn(C(C)(C)C=C)c4ccccc34)=C(O)C2=O)c2ccccc21
Test Readout: TGI
Value Observed: 14.6 µM
//
Compound: CCCCCCCCCc1ccc(OCCOCCOCCOCCOCCOCCOCCOCCOCCO)cc1
Test Readout: TGI
Value Observed: 3.69 µM
//
Compound: CC(=O)C(C)C(=O)N1C(=O)N(C)C2(C)N(C)C(=O)NC12C (stereo not given)
Test Readout: TGI
Value Observed: > 100 µM
//
Compound: COc1ccc2c(c1)CN([C@@H](C)[C@H]1CC[C@H]3[C@@H]4CC[C@H]5C[C@@H](O)CC[C@]5(C)[C@H]4CC[C@]13C)CO2
Test Readout: TGI
Value Observed: 4.51 µM
//
Compound: O=C(/C=C1\Sc2ccccc2N=C1CC(=O)c1ccccc1)c1ccccc1
Test Readout: TGI
Value Observed: 25.1 µM
//
Compound: CC1=Nc2ccccc2SC(c2c(Cl)cccc2Cl)C1 (stereo not given)
Test Readout: TGI
Value Observed: 4.43 µM
//
Compound: COc1ccc(/C=C2/C(=O)N(C(=O)c3ccccc3O)N=C2C)cc1
Test Readout: TGI
Value Observed: > 100 µM
//
Compound: CN(C)C(=S)/N=c1\ssc(=S)n1C
Test Readout: TGI
Value Observed: > 100 µM
//
Compound: CC12CC(=O)Nc3ccccc3N1C(c1ccccc1)=NO2 (stereo not given)
Test Readout: TGI
Value Observed: > 100 µM
//
Compound: FC(F)(F)c1ccc2c(c1)nc1n2C(c2c(Cl)cccc2Cl)SC1 (stereo not given)
Test Readout: TGI
Value Observed: 38.6 µM

Values were extracted from PubChem BioAssay (NCI).
